# key: entry, value: gamma-GTP
Species on record: Rattus norvegicus
Test: Open TG-GATES - Regimen: Daily Repeat
Assay type: toxicity, organism-based, Sprague-Dawley
Parameters: regimen Daily Repeat, gender Male, age 6 weeks
Details: in vivo, po, 300 mg/kg, […], tissue Plasma, route gavage, dose level Middle, time 7 day
Put your answer as a value accompanied by its unit after it.

Solved cases (3 shown):
compound | gamma-GTP
CCN1CCCC1CNC(=O)c1cc(S(N)(=O)=O)ccc1OC (centres undefined) [SULPIRIDE] | 1 IU/L
O=C(N[C@H](CO)[C@H](O)c1ccc([N+](=O)[O-])cc1)C(Cl)Cl [CHLORAMPHENICOL] | 1 IU/L
CC(C)(S)[C@@H](N)C(=O)O [PENICILLAMINE] | 1 IU/L

Shift focus to the following entry.
Exercise: Requested field: gamma-GTP. Item: O=C(O)c1cccnc1 [NIACIN]
Solution: 1.4 IU/L

* * *

Species: Rattus norvegicus
Experiment: Open TG-GATES - Regimen: Single
Type: toxicity, organism-based, Sprague-Dawley
Design: regimen Single, gender Male, age 6 weeks
Conditions: in vivo, po, 0 mg/kg, 3 h, tissue Plasma, route gavage, dose level Control
# key: entry, value: TC
Give just the numeric value; mg/dL need not be written.

compound | unit.label | TC
O=C(N[C@H](CO)[C@H](O)c1ccc([N+](=O)[O-])cc1)C(Cl)Cl | mg/dL | 74.6

Exercise: Requested field: TC. Item: `Nc1nc(N)c2nc(-c3ccccc3)c(N)nc2n1`
Solution: 79.6

Exercise: Requested field: TC. Item: `CN1C(=O)OC(C)(C)C1=O`
Solution: 72.2

Exercise: Requested field: TC. Item: CCN1CCCC1CNC(=O)c1cc(S(N)(=O)=O)ccc1OC (stereo unspecified) [SULPIRIDE]
Solution: 60.8

Exercise: Requested field: TC. Item: CC(C)C(=O)Nc1ccc([N+](=O)[O-])c(C(F)(F)F)c1 [FLUTAMIDE]
Solution: 83.2

Exercise: Requested field: TC. Item: `CCc1oc2ccccc2c1C(=O)c1cc(I)c(O)c(I)c1`
Solution: 79.4

* * *

Species on record: Rattus norvegicus
Test: Open TG-GATES - Regimen: Single
Format: toxicity, organism-based, Sprague-Dawley
Design: regimen Single, gender Male, age 6 weeks
Details: in vivo, po, 0 mg/kg, 24 h, tissue Plasma, route gavage, dose level Control
# key: entry, value: IP
Give just the numeric value; mg/dL need not be written.

Solved cases (5 shown):
compound | unit.label | IP
Oc1ncnc2[nH]ncc12 | mg/dL | 8.4
O=C(O)c1cccnc1 | mg/dL | 8.2
C[C@](N)(Cc1ccc(O)c(O)c1)C(=O)O | mg/dL | 7.8
CC(C)C(=O)Nc1ccc([N+](=O)[O-])c(C(F)(F)F)c1 [FLUTAMIDE] | mg/dL | 7.1
CCC(C)(C)C(=O)O[C@H]1C[C@@H](C)C=C2C=C[C@H](C)[C@H](CC[C@@H]3C[C@@H](O)CC(=O)O3)[C@H]21 | mg/dL | 8

Exercise: Requested field: IP. Item: `CC(=O)Oc1cc(C(C)C)c(OCCN(C)C)cc1C`
Solution: 6.6

* * *

Species: Rattus norvegicus
Assay: Open TG-GATES - Regimen: Daily Repeat
Format: toxicity, organism-based, Sprague-Dawley
Parameters: regimen Daily Repeat, gender Male, age 6 weeks
Conditions: in vivo, po, 0 mg/kg, […], tissue Plasma, route gavage, dose level Control, time 28 day
quantity.kind: K (meq/L)
Give just the numeric value; meq/L need not be written.

Solved cases (5 shown):
molecule | unit.label | K
C#C[C@]1(O)CC[C@H]2[C@@H]3CCc4cc(O)ccc4[C@H]3CC[C@@]21C | meq/L | 3.8
CCSCC[C@H](N)C(=O)O | meq/L | 3.8
CC(C)C(=O)Nc1ccc([N+](=O)[O-])c(C(F)(F)F)c1 [FLUTAMIDE] | meq/L | 3.8
Oc1ncnc2[nH]ncc12 | meq/L | 4.7
CCC(C)(C)C(=O)O[C@H]1C[C@@H](C)C=C2C=C[C@H](C)[C@H](CC[C@@H]3C[C@@H](O)CC(=O)O3)[C@H]21 | meq/L | 4.3

Exercise: Requested field: K. Item: CCN1CCCC1CNC(=O)c1cc(S(N)(=O)=O)ccc1OC (centres undefined) [SULPIRIDE]
Solution: 3.7

Exercise: Requested field: K. Item: `CCc1oc2ccccc2c1C(=O)c1cc(I)c(O)c(I)c1`
Solution: 4.5

Exercise: Requested field: K. Item: `O=C(N[C@H](CO)[C@H](O)c1ccc([N+](=O)[O-])cc1)C(Cl)Cl`
Solution: 3.7

Exercise: Requested field: K. Item: `CN1C(=O)OC(C)(C)C1=O`
Solution: 4

* * *

Species: Rattus norvegicus
Experiment: Open TG-GATES - Regimen: Daily Repeat
Assay type: toxicity, organism-based, Sprague-Dawley
Parameters: regimen Daily Repeat, gender Male, age 6 weeks
Conditions: in vivo, po, 0 mg/kg, […], tissue Plasma, route gavage, dose level Control, time 7 day
# key: entry, value: A/G
Enter the number alone.

compound | A/G
CCc1oc2ccccc2c1C(=O)c1cc(I)c(O)c(I)c1 | 1.7
CN1C(=O)OC(C)(C)C1=O | 0.8
C[C@](N)(Cc1ccc(O)c(O)c1)C(=O)O | 0.9
C[C@]12CCC(=O)C=C1CC[C@@H]1[C@@H]2CC[C@@]2(C)[C@H]1CC[C@]2(C)O | 0.9
CCN1CCCC1CNC(=O)c1cc(S(N)(=O)=O)ccc1OC (stereo unspecified) [SULPIRIDE] | 0.9

Shift focus to the following entry.
Exercise: Requested field: A/G. Item: `CC(C)(S)[C@@H](N)C(=O)O`
Solution: 0.9

* * *

Species: Rattus norvegicus
Experiment: Open TG-GATES - Regimen: Daily Repeat
Assay type: toxicity, organism-based, Sprague-Dawley
Design: regimen Daily Repeat, gender Male, age 6 weeks
Conditions: in vivo, po, 300 mg/kg, […], tissue Blood, route gavage, dose level Middle, time 28 day
# key: entry, value: PT
Give just the numeric value; s need not be written.

compound | unit.label | PT
CCN1CCCC1CNC(=O)c1cc(S(N)(=O)=O)ccc1OC (centres undefined) [SULPIRIDE] | s | 13.4
CC(C)(S)[C@@H](N)C(=O)O | s | 14.7
O=C(N[C@H](CO)[C@H](O)c1ccc([N+](=O)[O-])cc1)C(Cl)Cl | s | 14.7

Shift focus to the following entry.
Exercise: Requested field: PT. Item: `O=C(O)c1cccnc1`
Solution: 16.1

* * *

Species on record: Rattus norvegicus
Test: Open TG-GATES - Regimen: Daily Repeat
Type: toxicity, organism-based, Sprague-Dawley
Design: regimen Daily Repeat, gender Male, age 6 weeks
Conditions: in vivo, po, 0 mg/kg, […], tissue Blood, route gavage, dose level Control, time 28 day
quantity.kind: MCHC (%)
Give just the numeric value; % need not be written.

Solved cases (3 shown):
compound | MCHC (%)
C[C@](N)(Cc1ccc(O)c(O)c1)C(=O)O | 34.8
CCc1oc2ccccc2c1C(=O)c1cc(I)c(O)c(I)c1 | 33.7
CCC(C)(C)C(=O)O[C@H]1C[C@@H](C)C=C2C=C[C@H](C)[C@H](CC[C@@H]3C[C@@H](O)CC(=O)O3)[C@H]21 | 33.3

Exercise: Requested field: MCHC. Item: CC(C)C(=O)Nc1ccc([N+](=O)[O-])c(C(F)(F)F)c1 [FLUTAMIDE]
Solution: 35

Exercise: Requested field: MCHC. Item: `Nc1nc(N)c2nc(-c3ccccc3)c(N)nc2n1`
Solution: 33.3

* * *

Organism: Rattus norvegicus
Assay: Open TG-GATES - Regimen: Daily Repeat
Format: toxicity, organism-based, Sprague-Dawley
Parameters: regimen Daily Repeat, gender Male, age 6 weeks
Conditions: in vivo, po, 0 mg/kg, 72 h, tissue Plasma, route gavage, dose level Control, time 3 day
quantity.kind: LDH (IU/L)
Give just the numeric value; IU/L need not be written.

Solved cases (3 shown):
molecule | LDH (IU/L)
CCc1oc2ccccc2c1C(=O)c1cc(I)c(O)c(I)c1 [BENZIODARONE] | 79.6
CC(=N)S [THIOACETAMIDE] | 88
O=C(O)c1cccnc1 [NIACIN] | 161.4

Exercise: Requested field: LDH. Item: O=C(N[C@H](CO)[C@H](O)c1ccc([N+](=O)[O-])cc1)C(Cl)Cl [CHLORAMPHENICOL]
Solution: 80.8

Exercise: Requested field: LDH. Item: CC(C)(S)[C@@H](N)C(=O)O [PENICILLAMINE]
Solution: 84.4

Exercise: Requested field: LDH. Item: CCC(C)(C)C(=O)O[C@H]1C[C@@H](C)C=C2C=C[C@H](C)[C@H](CC[C@@H]3C[C@@H](O)CC(=O)O3)[C@H]21 [SIMVASTATIN]
Solution: 81

Exercise: Requested field: LDH. Item: C[C@]12CCC(=O)C=C1CC[C@@H]1[C@@H]2CC[C@@]2(C)[C@H]1CC[C@]2(C)O [METHYLTESTOSTERONE]
Solution: 54.4

Exercise: Requested field: LDH. Item: C#C[C@]1(O)CC[C@H]2[C@@H]3CCc4cc(O)ccc4[C@H]3CC[C@@]21C [ETHINYL ESTRADIOL]
Solution: 68.4

Exercise: Requested field: LDH. Item: C[C@](N)(Cc1ccc(O)c(O)c1)C(=O)O [METHYLDOPA]
Solution: 52.2
